Test system: Jurkat E6-1 cells
Experiment: CellTiter-Glo cell viability, 72 hours
Format: cell-based
Settings: Homo sapiens, Jurkat E6.1, read-out: IC50 values
Observed property: IC50 (nM)

- Structure string: "Nc1ncn([C@H]2C[C@H](O)[C@@H](CO)O2)c(=O)n1"
  Val: 100

---

Test system: MOLT-3 cells
Assay: CellTiter-Glo cell viability, 72 hours
Format: cell-based
Conditions: Homo sapiens, MOLT-3, read-out: IC50 values
Observed property: IC50

- Compound: "Nc1ncn([C@H]2C[C@H](O)[C@@H](CO)O2)c(=O)n1 [Decitabine]"
  Observed property: "IC50"
  Val: "230 nM"

---

Collected clearance values appear next to each entry.
Assay: clinical
Conditions: human, in vivo, intravenous
Observed property: clearance (mL/min)

- Molecule: "Nc1ccn([C@@H]2O[C@H](CO)[C@@H](O)[C@@H]2O)c(=O)n1 [Cytarabine, 1-β-D-arabinofuranosylcytosine]"
  Val: 1.77
- Molecule: "COc1cccc2c1C(=O)c1c(O)c3c(c(O)c1C2=O)C[C@@](O)(C(C)=O)C[C@@H]3O[C@H]1C[C@H](N)[C@H](O)[C@H](C)O1 [Daunorubicin]"
  Val: 2.42
